Endpoint: melting point

Please review the entries below; each comes with its answer.
Compound	Endpoint	Reported Value
Cc1cc(N)c(F)cc1Br	melting point	57 °C
Cc1cccnc1-c1ccccc1Nc1nc(Nc2ccc3c(c2)C(C)(C)CCC(=O)N3)ncc1Cl	melting point	130 to 135 °C
COC(=O)c1cc(-c2ccc(OCc3ccccc3)cc2)n(-c2ccc(S(N)(=O)=O)cc2)n1	melting point	196 to 198 °C
COc1ccc(CCc2nc3ccccc3c(=O)n2CCN(C)C)cc1	melting point	73.5 to 74.5 °C

# context switch: different compound, same melting point
Given the compound O=CN1CC2CCCc3cccc1c32 (stereo not given) , write its reported melting point.
93 to 94 °C

* * *

This listing pairs compounds with measured melting point.

Please review the entries below; each comes with its answer.
Compound	melting point
O=S(=O)(CCl)c1cccc2ccccc12	103 to 105 °C
Nc1ccc(Sc2ccccc2)cn1	127 to 129 °C
O=C1N(c2ccc(C(F)(F)F)cc2)CN2C(c3ccc(Cl)cc3)C(c3ccccc3)CN12 (stereo not given)	184 to 187 °C
COc1ccc(CNc2cc(Cn3c(C(=O)c4cc(C)cc(C)c4)c(C(C)C)c(=O)[nH]c3=O)cc(Cl)n2)cc1	211 to 212 °C
Cc1nc2c(cc1C(=O)NC(=N)N)C(O)CCCC2 (stereo not given)	225 to 226 °C

Given the compound CCOC(=O)N1CCN(c2nc(N(C(C)=O)C3CC3)ccc2N)CC1 , write its reported melting point.
149 to 150 °C

Given the compound Cn1c(=O)c2c(ncn2CCCCC#N)n(C)c1=O , write its reported melting point.
118 to 120 °C

Given the compound COc1cc2c(c3c1OC(C)(C)C3)C(c1ccc(=O)n(-c3cccc(-c4ccccn4)n3)c1)=NC(C)(C)C2 , write its reported melting point.
231 to 234 °C

Given the compound CN1CCC(c2c[nH]c3ccc(NC(=O)c4ccc(F)s4)nc23)CC1 , write its reported melting point.
244 to 245 °C

Given the compound CC(=O)Oc1cccc(-c2nc(=O)n(C(C)C)c3cc(C)ccc23)c1 , write its reported melting point.
148 to 150 °C

* * *

This listing pairs compounds with measured melting point.

Please review the entries below; each comes with its answer.
Compound	Endpoint	Reported Value
COC(=O)COc1ccc(-c2ccc[nH]2)cc1	melting point	136 to 137 °C
NS(=O)(=O)c1ccc(NC(=O)c2ccc(F)cc2SSc2cc(F)ccc2C(=O)Nc2ccc(S(N)(=O)=O)cc2)cc1	melting point	309 to 310 °C
COc1nc(NC(=O)NS(=O)(=O)c2c(C)cccc2OC)nc(OC)n1	melting point	163 °C
CC(=O)OCC(=O)c1cc(O)c(O)c([N+](=O)[O-])c1	melting point	166 to 168 °C

Given the compound Cc1c(O)c(C)c(Cc2cc(C(C)(C)C)c(O)c(C(C)(C)C)c2)c(C)c1Cc1cc(C(C)(C)C)c(O)c(C(C)(C)C)c1 , write its reported melting point.
204 °C

Given the compound NC(=O)CNC(=O)c1ccc(-c2cccc3cc(COc4cccc(C(F)(F)F)c4)sc23)cc1 , write its reported melting point.
164 to 165 °C

Given the compound CCC12CCC3=C(CCc4cc(OC)ccc43)C1CCC21OCCO1 (centres undefined) , write its reported melting point.
135 to 137 °C

Given the compound OCC1=C(c2cc3c(Cl)cccc3s2)N2CCN=C2S1 , write its reported melting point.
170 to 172 °C

Given the compound Cc1sc2c(c1CCN1CCC(c3noc4cc(F)ccc34)CC1)CCN(C(=O)c1ccccc1)C2 , write its reported melting point.
192 to 195 °C

Given the compound Nc1ccnc(-c2nc(=O)c3ccccc3s2)c1 , write its reported melting point.
208 °C

* * *

This listing pairs compounds with measured melting point.

Please review the entries below; each comes with its answer.
Compound	Endpoint	Reported Value
CC(C(=O)NC1Cc2ccccc2CC1O)c1ccccc1 (stereo not given)	melting point	158 °C
CCCN=C(NC#N)NCCSCc1[nH]cnc1C	melting point	108 to 110 °C
CC(C)CS(=O)(=O)c1ccc(N)c(S(=O)(=O)CC(C)C)c1	melting point	118 to 120 °C
CN(Cc1sc2c(=O)c(C(=O)NCc3ccc(Cl)cc3)cn(C)c2c1CNS(C)(=O)=O)C[C@@H](O)c1ccccn1	melting point	171 to 177 °C

# context switch: different compound, same melting point
Given the compound COc1ccc(/C=C/C(=O)c2ccc(CC3SC(=O)NC3=O)cc2)cc1 (stereo not given) , write its reported melting point.
177 to 180 °C

* * *

Endpoint: melting point

Compound	melting point
COc1c(NC(=O)c2cc3cccc(Oc4ccnc(NCCN5CCOCC5)n4)c3n2C)cc(C(C)(C)C)cc1NS(C)(=O)=O	201 to 202 °C
CCOC(=O)c1ccc(C=C(CCCc2ccc(C(=O)O)cc2)Cn2ccnc2)cc1	167 to 170 °C

Given the compound CN1CCN(CCC(=O)N2c3ccccc3C(=O)Nc3cccnc32)CC1 , write its reported melting point.
232 to 233 °C

Given the compound CC(=O)C1=CCC2C3CCC4=CC(=O)CCC4(C)C3CCC12C (centres undefined) , write its reported melting point.
185 to 190 °C

Given the compound COc1ccc(C(=O)Nc2ccc(C(=O)NC(C)(C)C)cc2)cc1C12CC3CC(CC(C3)C1)C2 , write its reported melting point.
270 to 273 °C

Given the compound COc1cc2nc(Cl)n3ncnc3c2cc1OC , write its reported melting point.
258 to 260 °C

Given the compound CN(C)C=NCc1ccc2c(c1)Nc1nccnc1S2 , write its reported melting point.
218 to 219 °C

Given the compound CSCC(O)COc1cccc2oc(C(=O)O)cc(=O)c12 (centres undefined) , write its reported melting point.
76 to 79 °C

Given the compound O=C(CC(F)(F)F)Nc1c(C(=O)c2ccccc2)[nH]c2cc(Cl)ccc12 , write its reported melting point.
201 to 204 °C

* * *

Endpoint: melting point

Compound	melting point
CCCCCCCCCCCCCCC(OC)C(=O)OC (stereo not given)	28.6 to 30.6 °C

Given the compound O=S(=O)(/C=C/c1ccc(Br)cc1)CS(=O)(=O)/C=C/c1ccc(Br)cc1 , write its reported melting point.
213 to 215 °C

Given the compound CCSC(=NC(=O)N(C)C)NC(=O)NC , write its reported melting point.
109 to 112 °C

Given the compound O=C(Nc1n[nH]c2cc(Cl)ccc12)c1cc(Cl)cc(Cl)c1 , write its reported melting point.
240 °C

Given the compound Cc1ccc(S(=O)(=O)O)cc1C=C1C(=O)C2(C)CCC1C2(C)C (stereo not given) , write its reported melting point.
130 °C

Given the compound CCN(CC)CCOc1cccc2c1c1cccc(F)c1n2Cc1ccccc1 , write its reported melting point.
60 to 60.5 °C

Given the compound O=c1cnc2cc(C(c3cccc(Cl)c3)n3ccnc3)ccc2[nH]1 (stereo not given) , write its reported melting point.
253 °C

Given the compound O=CN(O)C(CCO)CS(=O)(=O)c1ccc(-c2ccc(C(F)(F)F)cc2)cc1 (stereo not given) , write its reported melting point.
186 to 189 °C

* * *

Endpoint: melting point

Compound	melting point
CC(C)(C)NC(=O)[C@@H]1CCCN1C(=O)[C@@H](O)[C@H](Cc1ccccc1)NC(=O)[C@H](CC(N)=O)NC(=O)COC1CCN(Cc2ccccc2)CC1	94 to 103 °C
CC(C(=O)O)c1ccc(-n2cccn2)c(Cl)c1 (configuration not stated)	83 to 85 °C
COc1ccc(C2=NN(c3ccccn3)C(=O)CC2)cc1	> 300 °C
C=CCc1c(O)cc(O)c(C)c1C(=O)OC	72 to 95 °C
CCN(CC)CCNc1nc(N2CCCC2)nc2ccccc12	87 to 90 °C

Given the compound O=C1CCCCC1C(=S)Nc1ccc(Br)cc1F (configuration not stated) , write its reported melting point.
94 to 95 °C

Given the compound Cc1ccc(Cn2c(=O)cc(C(C)C(=O)Oc3ccccc3)c3cc(C)ccc32)cc1 (configuration not stated) , write its reported melting point.
111 to 113 °C

Given the compound O=C(O)c1nc(C2CC2)[nH]c(=O)c1Cl , write its reported melting point.
189 to 190 °C

Given the compound Cc1ccccc1Oc1cccc2c1OC(=O)CC2 , write its reported melting point.
80 to 82 °C

Given the compound CC(=O)c1c(C)c2cnc(N)nc2n(C2CCCC2)c1=O , write its reported melting point.
182 to 186 °C

Given the compound Cc1cn(C)c(C(=O)NS(=O)(=O)c2ccccc2Cl)n1 , write its reported melting point.
230 to 231 °C

* * *

This listing pairs molecules with measured melting point.

Please review the entries below; each comes with its answer.
Molecule	Reported Value
COc1c(C)cc(C)cc1C(=O)O	97 to 98 °C
CS(=O)(=O)c1ccc(-c2nc3n(c2-c2ccncc2)CCC3)cc1	222 to 224 °C
COc1cc2c(cc1C#N)C1(CO2)C(=O)Nc2ccccc21 (stereo not given)	185 to 186 °C

Given the molecule COc1cccc(-n2nc(C(=O)O)c3csc(N)c3c2=O)c1 , write its reported melting point.
227 to 229 °C

Given the molecule COc1cc(C(=O)c2sc(NC(=O)c3ccncc3)nc2-c2ccco2)ccn1 , write its reported melting point.
237 to 239 °C

Given the molecule C(=C/c1cn(C(c2ccccc2)(c2ccccc2)c2ccccc2)cn1)/CCOCc1ccccc1 , write its reported melting point.
101 to 104 °C

Given the molecule CC(CCC(=O)C(C)(C)OO)C1CCC2C3CC=C4CC(OC5CCCCO5)CCC4(C)C3CCC12C (stereo not given) , write its reported melting point.
130 to 131 °C
